# Test system: HSP-90 (heat shock protein 90)
# MEASUREMENT DESCRIPTION: Determination of affinity for HSP-90 (elution from purine affinity column, SDS-PAGE densitometry)
# Assay type: binding
# Set-up: key: +++: very high; ++: high; +: moderate
# RUN CONDITIONS: elution of HSP-90 from purine affinity column with 20, 100 and 500 μM test compound
TEST READOUT: relative binding affinity to HSP-90

Example cases with answers are listed next.
INSERT INTO measurements (compound, test_readout, reported_measurement) VALUES
  ('Cc1cc2c(n1-c1cnc(C(N)=O)c(Nc3ccccc3)c1)CC(C)(C)CC2=O [Compound 75]', 'relative binding affinity to HSP-90', '+++'),
  ('Cc1cc2c(n1-c1ccc(C(N)=O)c(NN3CCOCC3)c1)CC(C)(C)CC2=O [Compound 94]', 'relative binding affinity to HSP-90', '++'),
  ('Cc1cn(-c2ccc(C(N)=O)c(NC(N)=O)c2)c2c1C(=O)CC(C)(C)C2 [Compound 55]', 'relative binding affinity to HSP-90', '++'),
  ('Cc1cc2c(n1-c1ccc(C(N)=O)c(N3CCOCC3)c1)CC(C)(C)CC2=O [Compound 79]', 'relative binding affinity to HSP-90', '+'),
  ('Cc1nn(-c2ccc(C(N)=O)c(Nc3ccc(=O)[nH]c3)c2)c2c1C(=O)CC(C)(C)C2 [Compound 115]', 'relative binding affinity to HSP-90', '+++'),
  ('COc1cc(Nc2cc(-n3nc(C(F)(F)F)c4c3CC(C)(C)CC4=O)ccc2C(N)=O)cc(OC)c1OC [Compound 107]', 'relative binding affinity to HSP-90', '++'),
  ('Cc1nn(-c2ccc(C(N)=O)c(NC(CCO)CCO)c2)c2c1C(=O)CC(C)(C)C2 [Compound 121]', 'relative binding affinity to HSP-90', '+++'),
  ('C=CCCc1nn(-c2ccc(C(N)=O)cc2)c2c1C(=O)CC(C)(C)C2 [Compound 134]', 'relative binding affinity to HSP-90', '++'),
  ('CC1(C)CC(=O)c2c(C(F)(F)F)nn(-c3ccc(C(N)=O)c(NCC(O)CO)c3)c2C1 (stereo not drawn) [Compound 30]', 'relative binding affinity to HSP-90', '++'),
  ('C=CCNc1cc(-n2cc(C)c3c2CC(C)(C)CC3=O)ccc1C(N)=O [Compound 50]', 'relative binding affinity to HSP-90', '+++');

For every record below, what is its relative binding affinity to HSP-90?
1. CC(=O)Nc1cc(-n2cc(C)c3c2CC(C)(C)CC3=O)ccc1C(N)=O [Compound 98]
2. CC1(C)CC(=O)c2c(C(F)F)nn(-c3ccc(C(N)=O)c(NC4CCSCC4)c3)c2C1 [Compound 32]
3. CCn1nccc1Nc1cc(-n2c(C)cc3c2CC(C)(C)CC3=O)ccc1C(N)=O [Compound 83]
4. Cc1nn(-c2ccc(C(N)=O)c(NC3CCC3)c2)c2c1C(=O)CC(C)(C)C2 [Compound 117]
5. Cc1cc2c(n1-c1ccc(C(N)=O)c(N[C@H](C(=O)O)C(C)C)c1)CC(C)(C)CC2=O [Compound 78]

1: +++; 2: +++; 3: +++; 4: +++; 5: +

====

# System: HSP-90 (heat shock protein 90)
# MEASUREMENT DESCRIPTION: Determination of affinity for HSP-90 (elution from purine affinity column, SDS-PAGE densitometry)
# Format: binding
# Design: key: +++: very high; ++: high; +: moderate
# RUN CONDITIONS: elution of HSP-90 from purine affinity column with 20, 100 and 500 μM test compound
TEST READOUT: relative binding affinity to HSP-90

INSERT INTO assay_data (smiles_representation, measured_target, reported_measurement) VALUES
  ('Cc1nn(-c2ccc(C(N)=O)c(N[C@H]3CCN(S(C)(=O)=O)C3)c2)c2c1C(=O)CC(C)(C)C2', 'HSP-90 (heat shock protein 90)', '+++'),
  ('COc1ccc(Nc2cc(-n3c(C)cc4c3CC(C)(C)CC4=O)ccc2C(N)=O)cn1', 'HSP-90 (heat shock protein 90)', '++'),
  ('Cc1cc2c(n1-c1ccc(C(N)=O)c(-c3ccncc3)c1)CC(C)(C)CC2=O', 'HSP-90 (heat shock protein 90)', '++'),
  ('Cc1cn(-c2ccc(C(N)=O)c(NCCN3CCOCC3)c2)c2c1C(=O)CC(C)(C)C2', 'HSP-90 (heat shock protein 90)', '+++'),
  ('COc1cc(Nc2cc(-n3c(C)cc4c3CC(C)(C)CC4=O)ccc2C(N)=O)cc(OC)c1OC', 'HSP-90 (heat shock protein 90)', '+++'),
  ('CC(=O)OCC(=O)NCCNc1cc(-n2cc(C)c3c2CC(C)(C)CC3=O)ccc1C(N)=O', 'HSP-90 (heat shock protein 90)', '+++');

For every record below, what is its relative binding affinity to HSP-90?
1. Cc1nn(-c2ccc(C(N)=O)c(NCCCS(C)(=O)=O)c2)c2c1C(=O)CC(C)(C)C2
2. Cc1cn(-c2ccc(C(N)=O)c(Sc3ccncc3)c2)c2c1C(=O)CC(C)(C)C2

+++
++
